System: N. flavescens
Experiment: MIC against Neisseria spp.
Assay type: cell-based
Conditions: N. flavescens (1 strain)
Description: Intrigued by the specificity and potent activity of azoles against N. gonorrhoeae, we evaluated the extent of the azoles' antibacterial activity against other Neisseria species (Table 8).
MEASURED_ENDPOINT: MIC Range (µg/mL)
State just the number; it will be interpreted in µg/mL.

Worked cases, answers included:
COMPOUND	MIC Range (µg/mL)
C[C@@H](c1nc(-c2ccc(C#N)cc2)cs1)[C@](O)(Cn1cncn1)c1cc(F)ccc1F	16
C[C@@H](c1nc(-c2ccc(C#N)cc2)cs1)[C@](O)(Cn1cncn1)c1ccc(F)cc1F	0.125
CO/N=C(\C(=O)N[C@@H]1C(=O)N2C(C(=O)O)=C(CSc3nc(=O)c(=O)[nH]n3C)CS[C@H]12)c1csc(N)n1	0.125
CC[C@H]1OC(=O)[C@H](C)[C@@H](O[C@H]2C[C@@](C)(OC)[C@@H](O)[C@H](C)O2)[C@H](C)[C@@H](O[C@@H]2O[C@H](C)C[C@H](N(C)C)[C@H]2O)[C@](C)(O)C[C@@H](C)CN(C)[C@H](C)[C@@H](O)[C@]1(C)O	2

We next turn to a different compound, shown below.
Looking up CCC(C)n1ncn(-c2ccc(N3CCN(c4ccc(OCC5COC(Cn6cncn6)(c6ccc(Cl)cc6Cl)O5)cc4)CC3)cc2)c1=O (centres unmarked) , I found its MIC Range recorded as 64

----------
System: Enterococcus faecium
Experiment: MIC against normal gut microbiota
Assay type: cell-based
Settings: Enterococcus faecium (1 strain)
Listed here: items and their measured MIC Range.
Express your answer in µg/mL, writing the number without its unit.

QUERY_SMILES	MIC Range, µg/mL
O=c1ccc2ncc(=O)n3c2n1C[C@H]3CN1CCC(NCc2cc3c(cn2)OCCC3)CC1	2
CO/N=C(\C(=O)N[C@@H]1C(=O)N2C(C(=O)O)=C(CSc3nc(=O)c(=O)[nH]n3C)CS[C@H]12)c1csc(N)n1	8
CC[C@H]1OC(=O)[C@H](C)[C@@H](O[C@H]2C[C@@](C)(OC)[C@@H](O)[C@H](C)O2)[C@H](C)[C@@H](O[C@@H]2O[C@H](C)C[C@H](N(C)C)[C@H]2O)[C@](C)(O)C[C@@H](C)CN(C)[C@H](C)[C@@H](O)[C@]1(C)O	0.25

Sample `C[C@@H]1CN2c3c(cc4c(N5C(=O)OC[C@@H]5C)noc4c3F)CC3(C(=O)NC(=O)NC3=O)[C@H]2[C@H](C)O1` ; MIC Range observed: 2

----------
System: N. lactamica
Assay: MIC against Neisseria spp.
Format: cell-based
Settings: N. lactamica (1 strain)
The entries below come with measured MIC Range values attached.
The reply should contain only the number, in mg/L.

COMPOUND	ASSAYED_SYSTEM	MIC Range (mg/L)
CC[C@H]1OC(=O)[C@H](C)[C@@H](O[C@H]2C[C@@](C)(OC)[C@@H](O)[C@H](C)O2)[C@H](C)[C@@H](O[C@@H]2O[C@H](C)C[C@H](N(C)C)[C@H]2O)[C@](C)(O)C[C@@H](C)CN(C)[C@H](C)[C@@H](O)[C@]1(C)O	N. lactamica	2
CO/N=C(\C(=O)N[C@@H]1C(=O)N2C(C(=O)O)=C(CSc3nc(=O)c(=O)[nH]n3C)CS[C@H]12)c1csc(N)n1	N. lactamica	0.125
C[C@@H](c1nc(-c2ccc(C#N)cc2)cs1)[C@](O)(Cn1cncn1)c1ccc(F)cc1F	N. lactamica	0.03
C[C@@H](c1nc(-c2ccc(C#N)cc2)cs1)[C@](O)(Cn1cncn1)c1cc(F)ccc1F	N. lactamica	1

Form field MIC Range, entry CCC(C)n1ncn(-c2ccc(N3CCN(c4ccc(OCC5COC(Cn6cncn6)(c6ccc(Cl)cc6Cl)O5)cc4)CC3)cc2)c1=O (centres unmarked) : 4
